- Test details: Blood levels after oral gavage dosing of mice (LC-MS)
- Experimental setup: mouse, in vivo, po
Hi! Just check whether AUC is below 40 µM·h. Below gives rule met, equal or above gives rule not met.

CC(C)COc1ccc2cc(-c3nn(CC4CCN(C)CC4)c4ncnc(N)c34)ccc2c1 = rule met
CC(C)COc1ccc2cc(-c3nn(CC4CCNCC4)c4ncnc(N)c34)ccc2c1 = rule met

Data request: Does the reported AUC of the following compound sit strictly below 40 µM·h? CCOc1ccc2cc(-c3nc(C(C)C)n4ccnc(N)c34)ccc2c1
Data returned: rule not met

Data request: Does the reported AUC of the following compound sit strictly below 40 µM·h? C=CCOc1ccc2cc(-c3nn(C(C)C)c4ncnc(N)c34)ccc2c1
Data returned: rule not met

Data request: Does the reported AUC of the following compound sit strictly below 40 µM·h? Cn1ncc2cc(-c3nn(CC4CCNCC4)c4ncnc(N)c34)ccc21
Data returned: rule met

Data request: Does the reported AUC of the following compound sit strictly below 40 µM·h? C=CCOc1ccc2cc(-c3nn(CC4CCNCC4)c4ncnc(N)c34)ccc2c1
Data returned: rule met

Data request: Does the reported AUC of the following compound sit strictly below 40 µM·h? COc1ccc2cc(-c3nn(C(C)C)c4ncnc(N)c34)ccc2c1
Data returned: rule met

Data request: Does the reported AUC of the following compound sit strictly below 40 µM·h? CCOc1ccc2cc(-c3nn(CC4CCNCC4)c4ncnc(N)c34)ccc2c1
Data returned: rule met

Data request: Does the reported AUC of the following compound sit strictly below 40 µM·h? COc1ccc2cc(-c3nn(CC4CCNCC4)c4ncnc(N)c34)ccc2c1
Data returned: rule met

====

- Study target: TgCDPK1 (Toxoplasma gondii, UniProt Q9BJF5)
- Sequence (Q9BJF5 1-507): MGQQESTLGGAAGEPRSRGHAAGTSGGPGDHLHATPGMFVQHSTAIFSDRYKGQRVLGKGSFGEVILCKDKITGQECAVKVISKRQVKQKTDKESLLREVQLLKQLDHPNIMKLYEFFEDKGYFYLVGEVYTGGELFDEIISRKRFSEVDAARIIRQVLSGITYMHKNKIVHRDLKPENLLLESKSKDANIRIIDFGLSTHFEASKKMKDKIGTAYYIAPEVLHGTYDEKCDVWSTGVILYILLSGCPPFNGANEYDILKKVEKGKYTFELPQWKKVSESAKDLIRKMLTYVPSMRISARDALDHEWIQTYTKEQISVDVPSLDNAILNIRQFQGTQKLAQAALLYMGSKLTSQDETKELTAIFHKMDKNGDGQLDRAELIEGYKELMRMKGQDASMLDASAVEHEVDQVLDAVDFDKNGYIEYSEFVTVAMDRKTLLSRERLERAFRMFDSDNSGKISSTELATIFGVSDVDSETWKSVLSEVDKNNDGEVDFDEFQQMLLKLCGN
- Type: biochemical
- Experimental setup: read-out: IC50 (μM) TgCDPK1
compounds and their reported log10 IC50
Values reflect log10 of reported IC50 (µM).

// below: answered compounds
CC(C)(C)n1nc(-c2ccc(NC(=O)c3ccccc3)cc2)c2c(N)ncnc21 [Compound 65] = -0.77
CC(C)n1nc(-c2ccnc(Cl)c2)c2c(N)ncnc21 [Compound 19] = -1.20
Nc1ncnc2c1c(Cc1cccc3ccccc13)nn2C1CCCCC1 [Compound 5f] = -0.02

Data request: So what's the measured log10 IC50 for this one? CSc1cccc(-c2nn(C(C)C)c3ncnc(N)c23)c1 [Compound 7ab]
Data returned: -1.25

Data request: So what's the measured log10 IC50 for this one? CC(C)n1nc(-c2ccc3c(c2)OCO3)c2c(N)ncnc21 [Compound 7u]
Data returned: -1.35

Data request: So what's the measured log10 IC50 for this one? CC(C)c1ccc(-c2nn(C(C)C)c3ncnc(N)c23)cc1 [Compound 7d]
Data returned: -1.32

Data request: So what's the measured log10 IC50 for this one? CC(=O)N1CCC(n2nc(Cc3cccc4ccccc34)c3c(N)ncnc32)CC1 [Compound 5j]
Data returned: -1.04

Data request: So what's the measured log10 IC50 for this one? COc1cc(COc2cccc(-c3nn(C(C)C)c4ncnc(N)c34)c2)cc(OC)c1 [Compound 22]
Data returned: 0.06

Data request: So what's the measured log10 IC50 for this one? COc1ccc2[nH]c(-c3nn(C(C)C)c4ncnc(N)c34)cc2c1 [Compound 27]
Data returned: -1.24

====

compounds and their reported Cmax
- Test details: Blood levels after oral gavage dosing of mice (LC-MS)
- Experimental setup: mouse, in vivo, po
Output spec: scalar in µM, unitless text.

CC(C)COc1ccc2cc(-c3nn(CC4CCNCC4)c4ncnc(N)c34)ccc2c1 [Compound 44] = 0.95
C=CCOc1ccc2cc(-c3nn(C(C)C)c4ncnc(N)c34)ccc2c1 [Compound 41] = 13.6
CCOc1ccc2cc(-c3nc(C(C)C)n4ccnc(N)c34)ccc2c1 [Compound 10] = 26
COc1ccc2cc(-c3nn(C(C)C)c4ncnc(N)c34)ccc2c1 [Compound 7q] = 19.7
COc1ccc2cc(-c3nn(CC4CCNCC4)c4ncnc(N)c34)ccc2c1 [Compound 28] = 4.41

Data request: So what's the measured Cmax for this one? CCCCOc1ccc2cc(-c3nn(C(C)C)c4ncnc(N)c34)ccc2c1 [Compound 42]
Data returned: 10.7

Data request: So what's the measured Cmax for this one? CCOc1ccc2cc(-c3nn(CC4CCNCC4)c4ncnc(N)c34)ccc2c1 [Compound 29]
Data returned: 6.64

Data request: So what's the measured Cmax for this one? C=CCOc1ccc2cc(-c3nn(CC4CCNCC4)c4ncnc(N)c34)ccc2c1 [Compound 36]
Data returned: 0.59

Data request: So what's the measured Cmax for this one? CC(C)COc1ccc2cc(-c3nn(CC4CCN(C)CC4)c4ncnc(N)c34)ccc2c1 [Compound 124]
Data returned: 1.84

Data request: So what's the measured Cmax for this one? Cn1ncc2cc(-c3nn(CC4CCNCC4)c4ncnc(N)c34)ccc21 [Compound 121]
Data returned: 0.19

====

molecules and their reported Cell Toxicity SF539, % at 10 μM
- Test system: glioma derived (SF539)
- Test details: Growth inhibition of human cell line SF539
- Experimental setup: 10 μM

// below: answered molecules
CCOc1ccc2cc(-c3nn(C(C)C)c4ncnc(N)c34)ccc2c1 = <30% at 10 μM
Nc1ncnc2c1c(Cc1cccc3ccccc13)nn2C1CCNCC1 = <30% at 10 μM
CC(C)n1nc(-c2ccc3ccccc3c2)c2c(N)ncnc21 = 54% at 10 μM
Nc1ncnc2c1c(-c1ccc3cc(OCc4ccccc4)ccc3c1)nn2CC1CCNCC1 = 104%

Data request: So what's the measured Cell Toxicity SF539, % at 10 μM for this one? CCOc1ccc2cc(-c3nn(CC4CCNCC4)c4ncnc(N)c34)ccc2c1
Data returned: <30% at 10 μM

Data request: So what's the measured Cell Toxicity SF539, % at 10 μM for this one? C=CCOc1ccc2cc(-c3nn(CC4CCNCC4)c4ncnc(N)c34)ccc2c1
Data returned: <30% at 10 μM

Data request: So what's the measured Cell Toxicity SF539, % at 10 μM for this one? CC(C)n1nc(-c2cnc3ccccc3c2)c2c(N)ncnc21
Data returned: <30% at 10 μM

Data request: So what's the measured Cell Toxicity SF539, % at 10 μM for this one? Nc1ncnc2c1c(-c1cnc3ccccc3c1)nn2CC1CCNCC1
Data returned: <30% at 10 μM

Data request: So what's the measured Cell Toxicity SF539, % at 10 μM for this one? COc1ccc2cc(-c3nn(C(C)C)c4ncnc(N)c34)ccc2c1
Data returned: <30% at 10 μM

====

- Test details: Blood levels after oral gavage dosing of mice (LC-MS)
- Experimental setup: mouse, in vivo, po, 50 mg/kg
Endpoint: Tmax (h)
Output spec: scalar in h, unitless text.

Data request: So what's the measured Tmax for this one? CCOc1ccc2cc(-c3nn(CC4CCNCC4)c4ncnc(N)c34)ccc2c1
Data returned: 2.67

====

- Study target: CpCDPK1 (Cryptosporidium parvum (strain Iowa II), UniProt A3FQ16)
- Sequence (A3FQ16 1-538): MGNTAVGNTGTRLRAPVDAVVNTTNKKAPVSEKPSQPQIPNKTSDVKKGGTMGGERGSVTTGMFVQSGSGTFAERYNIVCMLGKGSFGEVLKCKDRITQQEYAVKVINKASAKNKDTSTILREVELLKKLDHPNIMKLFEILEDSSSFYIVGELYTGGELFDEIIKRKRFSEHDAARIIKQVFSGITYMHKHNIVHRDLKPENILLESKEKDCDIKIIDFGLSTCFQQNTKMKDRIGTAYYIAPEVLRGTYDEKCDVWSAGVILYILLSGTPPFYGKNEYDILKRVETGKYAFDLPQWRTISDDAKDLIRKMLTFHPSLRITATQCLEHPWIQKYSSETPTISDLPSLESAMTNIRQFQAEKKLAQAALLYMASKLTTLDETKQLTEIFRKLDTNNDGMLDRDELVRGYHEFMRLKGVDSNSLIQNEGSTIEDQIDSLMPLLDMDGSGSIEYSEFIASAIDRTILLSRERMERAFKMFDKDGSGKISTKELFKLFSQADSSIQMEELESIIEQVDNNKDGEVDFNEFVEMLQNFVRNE
- Test details: biochemical
- Format: biochemical
- Experimental setup: Table 8; read-out: IC50 (μM) CpCDPK1
compounds and their reported IC50
Output spec: scalar in µM, unitless text.

// below: answered compounds
CCCCOc1ccc2cc(-c3nn(CC4CCNCC4)c4ncnc(N)c34)ccc2c1 = 0.0044
CC(C)(C)n1nc(-c2ccc(NC(=O)Cc3ccccc3)cc2)c2c(N)ncnc21 = 2.02
CCC(=O)Nc1ccc(-c2nn(C(C)(C)C)c3ncnc(N)c23)cc1 = 0.822

Data request: So what's the measured IC50 for this one? COc1ccc2cc(-c3nn(CC4CCNCC4)c4ncnc(N)c34)ccc2c1
Data returned: 0.0023

Data request: So what's the measured IC50 for this one? COc1ccc(-c2nn(C(C)C)c3ncnc(N)c23)cc1OC
Data returned: 0.173

Data request: So what's the measured IC50 for this one? CC(C)(C)n1nc(-c2ccc(NC(=O)C3CCCCC3)cc2)c2c(N)ncnc21
Data returned: 0.928

Data request: So what's the measured IC50 for this one? CC(C)c1nc(-c2ccc3ccccc3c2)c2c(N)nccn12
Data returned: 0.0078

Data request: So what's the measured IC50 for this one? CCCC(=O)Nc1ccc(-c2nn(C(C)(C)C)c3ncnc(N)c23)cc1
Data returned: 0.927

====

- System: colorectal carcinoma (HC 2998)
- Test details: Growth inhibition of human cell line HC 2998
- Experimental setup: read-out: GI50 (μM) HCC2998; human cell line HCC2998
Endpoint: GI50

// below: answered molecules
CC(C)(C)n1nc(Cc2cccc3ccccc23)c2c(N)ncnc21 = > 10 µM
CC(C)n1nc(-c2ccc3ccccc3c2)c2c(N)ncnc21 = ~10 µM
Nc1ncnc2c1c(Cc1cccc3ccccc13)nn2CC1CCNCC1 = > 10 µM

# input for lookup
Data request: Recall the recorded GI50 for CC(C)(C)n1nc(-c2cccc3ccccc23)c2c(N)ncnc21 with colorectal carcinoma (HC 2998) and state it.
Data returned: > 10 µM
